Source listed as patent US20230233569A1.

- experimental.target: KRAS G12V (Homo sapiens, UniProt P01116+P62937, G12V)
- Sequence (P01116 1-169 isoform P01116-2 G12V limits assumed): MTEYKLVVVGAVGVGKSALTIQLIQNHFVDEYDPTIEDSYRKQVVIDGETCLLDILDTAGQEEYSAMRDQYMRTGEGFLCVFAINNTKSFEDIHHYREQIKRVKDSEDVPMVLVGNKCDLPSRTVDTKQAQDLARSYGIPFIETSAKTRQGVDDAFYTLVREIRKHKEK
- Sequence (P62937 whole entry): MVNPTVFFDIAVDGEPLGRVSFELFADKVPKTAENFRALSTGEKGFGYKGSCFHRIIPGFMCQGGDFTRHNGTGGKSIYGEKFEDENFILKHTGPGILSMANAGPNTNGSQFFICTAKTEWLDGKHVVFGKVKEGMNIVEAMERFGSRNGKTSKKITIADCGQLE
- assay.notes: Disruption of BRAF RBD interaction with Ras (FRET / MOA assay, with Cyclophilin A)
- Assay type: biochemical
- experimental.parameters: KRAS G12V; read-out: KRAS G12V FRET data IC50
Listing of recorded IC50 by entry.

[Q] Tell me reported IC50 for CCn1c(-c2cc(N3CCN(C)CC3)cnc2[C@H](C)OC)c2c3cc(ccc31)-c1cccc(c1)C[C@H](NC(=O)[C@H](C(C)C)N(C)C(=O)[C@@H]1OCC[C@@H]1c1ccccc1)C(=O)N1CCC[C@H](N1)C(=O)OCC(C)(C)C2 (atropisomer, axis not shown) [Example A562] , tested with KRAS G12V (Homo sapiens, UniProt P01116+P62937, G12V).
[A] 10 to 100 nM
